Target or system Human β2 adrenoceptor (Homo sapiens): recorded IC50 listed per item.

Solved entries:
- Compound: "O=C(NCc1ccc(COc2cccc([C@](O)(C(=O)OCC3CCN(Cc4ccccc4)CC3)c3ccccc3)c2)cc1)c1ccc(CNC[C@H](O)c2ccc(O)c3[nH]c(=O)ccc23)cc1 [Compound 42D]"
  Reported result: "< 300 pM"
- Compound: "O=C(NCCOc1cccc([C@@](O)(C(=O)OCC2CCN(Cc3ccccc3)CC2)c2ccccc2)c1)c1ccc(CCNC[C@H](O)c2ccc(O)c3[nH]c(=O)ccc23)cc1 [Compound 34]"
  Reported result: "300 to 3000 pM"
- Compound: "O=C(c1ccc(CCNC[C@H](O)c2ccc(O)c3[nH]c(=O)ccc23)cc1)N1CCC(C(=O)N2CCC(COc3cccc([C@](O)(C(=O)OCC4CCN(Cc5ccccc5)CC4)c4ccccc4)c3)CC2)CC1 [Compound 151]"
  Reported result: "< 300 pM"

Just so you know, measured IC50 for O=C(COc1cccc([C@](O)(C(=O)OCC2CCN(Cc3ccccc3)CC2)c2ccccc2)c1)N[C@H]1C[C@H](NC(=O)c2ccc(CNC[C@H](O)c3ccc(O)c4[nH]c(=O)ccc34)cc2)C1 [Compound 63] came out at < 300 pM

###

Target: Human M3 receptor (Homo sapiens)
Sequence (P20309 whole entry): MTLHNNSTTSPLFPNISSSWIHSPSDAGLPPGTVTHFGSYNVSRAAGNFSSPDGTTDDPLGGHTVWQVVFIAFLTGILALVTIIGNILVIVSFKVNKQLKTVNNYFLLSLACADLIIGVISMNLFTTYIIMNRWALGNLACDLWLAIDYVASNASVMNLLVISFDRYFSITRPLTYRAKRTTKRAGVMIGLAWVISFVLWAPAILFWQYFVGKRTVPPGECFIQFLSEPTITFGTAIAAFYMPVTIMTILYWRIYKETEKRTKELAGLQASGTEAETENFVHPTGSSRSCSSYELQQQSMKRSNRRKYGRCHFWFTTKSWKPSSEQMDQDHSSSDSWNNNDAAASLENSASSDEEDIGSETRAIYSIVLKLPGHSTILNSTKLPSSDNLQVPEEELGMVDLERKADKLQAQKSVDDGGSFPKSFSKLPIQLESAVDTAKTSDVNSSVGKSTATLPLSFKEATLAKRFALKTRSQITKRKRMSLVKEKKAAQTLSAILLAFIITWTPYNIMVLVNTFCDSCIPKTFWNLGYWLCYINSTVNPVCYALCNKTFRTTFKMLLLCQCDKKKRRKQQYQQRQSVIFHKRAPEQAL
What IC50 was measured for each of the following?

- Molecule: "O=C(NCCCOc1cccc([C@](O)(C(=O)OCC2CCN(C3CCC3)CC2)c2ccccc2)c1)c1ccc(CNC[C@H](O)c2ccc(O)c3[nH]c(=O)ccc23)cc1"
  IC50: "0.3 to 3 nM"
- Molecule: "O=C(NCCCOc1cccc([C@](O)(C(=O)OCC2CCN(Cc3ccccc3)CC2)c2ccccc2)c1)c1ccc(CNC[C@H](O)c2ccc(O)c3[nH]c(=O)ccc23)cn1 [Compound 32K]"
  IC50: "0.3 to 3 nM"
- Molecule: "O=C(COc1cccc([C@](O)(C(=O)OCC2CCN(Cc3ccccc3)CC2)c2ccccc2)c1)NC1CCN(C(=O)c2ccc(CNC[C@H](O)c3ccc(O)c4[nH]c(=O)ccc34)cc2)CC1"
  IC50: "< 0.3 nM"

Next:
Just so you know, measured IC50 for CCc1cccc(C(O)(C(=O)OCC2CCN(Cc3ccccc3)CC2)c2cccc(OCCCCCNC[C@H](O)c3ccc(O)c4[nH]c(=O)ccc34)c2)c1 (stereo partly shown) came out at < 0.3 nM

###

What pIC50 was measured for each of the following?
Target: Human β2 adrenoceptor (Homo sapiens)
Sequence (P07550 whole entry): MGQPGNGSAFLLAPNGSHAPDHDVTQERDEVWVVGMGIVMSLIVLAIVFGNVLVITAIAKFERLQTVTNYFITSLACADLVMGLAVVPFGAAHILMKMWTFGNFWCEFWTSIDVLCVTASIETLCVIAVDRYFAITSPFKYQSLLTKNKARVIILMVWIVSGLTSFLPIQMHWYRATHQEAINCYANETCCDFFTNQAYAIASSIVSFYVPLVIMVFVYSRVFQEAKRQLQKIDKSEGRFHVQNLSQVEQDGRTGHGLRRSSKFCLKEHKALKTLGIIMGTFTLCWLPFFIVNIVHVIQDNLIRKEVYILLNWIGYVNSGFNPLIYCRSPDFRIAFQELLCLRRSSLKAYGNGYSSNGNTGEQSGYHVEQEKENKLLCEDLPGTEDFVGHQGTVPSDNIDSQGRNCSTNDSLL
pIC50: −log10 of the molar value.

Solved entries:
- Compound: "O=C(OCC1CCN(Cc2ccccc2)CC1)C(O)(c1ccccc1)c1cccc(OCCCCCNC[C@H](O)c2ccc(O)c3[nH]c(=O)ccc23)c1 (some centres unmarked)"
  pIC50: "> 9.52"
- Compound: "O=C(N[C@H]1CCCN(C(=O)COc2cccc([C@](O)(C(=O)OCC3CCN(Cc4ccccc4)CC3)c3ccccc3)c2)C1)c1ccc(CNC[C@H](O)c2ccc(O)c3[nH]c(=O)ccc23)cc1"
  pIC50: "< 8.52"
- Compound: "CN(CCNC(=O)c1ccc(CCNC[C@H](O)c2ccc(O)c3[nH]c(=O)ccc23)cc1)C(=O)COc1cccc([C@](O)(C(=O)OCC2CCN(Cc3ccccc3)CC2)c2ccccc2)c1"
  pIC50: "8.52 to 9.52"
- Compound: "O=C(N[C@H]1CCN(C(=O)COc2cccc([C@](O)(C(=O)OCC3CCN(Cc4ccccc4)CC3)c3ccccc3)c2)C1)c1ccc(CCNC[C@H](O)c2ccc(O)c3[nH]c(=O)ccc23)cc1"
  pIC50: "8.52 to 9.52"
- Compound: "O=C(NCCCOc1cccc([C@](O)(C(=O)OCC2CCN(Cc3ccccc3)CC2)c2ccccc2)c1)c1ccc(CNC[C@H](O)c2ccc(O)c3[nH]c(=O)ccc23)c(C(F)(F)F)c1 [Compound 32M]"
  pIC50: "< 8.52"

Quick batch: pIC50 for everything below.
1. O=C(COc1cccc([C@](O)(C(=O)OCC2CCN(Cc3ccccc3)CC2)c2ccccc2)c1)N1CCOC2(CCN(C(=O)c3ccc(CCNC[C@H](O)c4ccc(O)c5[nH]c(=O)ccc45)cc3)CC2)C1
2. COc1cc(CNC[C@H](O)c2ccc(O)c3[nH]c(=O)ccc23)ccc1NC(=O)NCc1ccc(COc2cccc([C@](O)(C(=O)OC3CCN(Cc4ccccc4)CC3)c3ccccc3)c2)cc1
3. O=C(COc1cccc([C@](O)(C(=O)OCC2CCN(Cc3ccccc3)CC2)c2ccccc2)c1)N1CCC2(CC1)CCN(C(=O)c1ccc(CCNC[C@H](O)c3ccc(O)c4[nH]c(=O)ccc34)cc1)CC2

## Result
8.52 to 9.52
8.52 to 9.52
> 9.52
